Where these numbers come from: PubChem BioAssay AID179

Test system: CEM cells HIV-1 protection, formazan growth assay
Assay: NCI AIDS Antiviral Assay
pEC50: −log10 of the molar value.
A collection of compounds and their measured pEC50

# COMPOUND, TARGET, pEC50
records = [
    ("O=C1NC(Nc2ccccc2)=NC(C(F)(F)F)(C(F)(F)F)N1", "CEM cells HIV-1 protection, formazan growth assay", "< 3.70"),
    ("O=[N+]([O-])c1ccccc1OCCOc1ccccc1[N+](=O)[O-]", "CEM cells HIV-1 protection, formazan growth assay", "< 3.70"),
    ("COC1OC(CCC2NC(CO)C(O)C(O)C2O)C(O)C(O)C1O (stereo not given)", "CEM cells HIV-1 protection, formazan growth assay", "< 3.70"),
    ("O=C1C(O)=C(c2ccc(Br)cc2)C(=O)C(O)=C1c1ccc(Br)cc1", "CEM cells HIV-1 protection, formazan growth assay", "< 4.23"),
    ("COc1ccc(-c2c(C#N)c(=O)nc(SC)n2C2OCC(OC(C)=O)C(OC(C)=O)C2OC(C)=O)cc1 (stereo not given)", "CEM cells HIV-1 protection, formazan growth assay", "< 3.70"),
    ("COC(=O)N1CC2CC(=O)OCC2[C@@H]1CO (stereo not given in full)", "CEM cells HIV-1 protection, formazan growth assay", "< 3.14"),
    ("C[C@H](NC(=O)c1ccccc1SC(=O)NCCCCl)C(N)=O", "CEM cells HIV-1 protection, formazan growth assay", 5.44),
    ("C/C(CC(O)(C(F)(F)F)C(F)(F)F)=N\\NC(N)=O", "CEM cells HIV-1 protection, formazan growth assay", "< 3.70"),
    ("COc1ccc(C2c3ccccc3C3(O)CC2CC(=O)O3)cc1 (stereo not given)", "CEM cells HIV-1 protection, formazan growth assay", "< 3.70"),
    ("Cc1ccc(/C=C/C(=O)c2sc(-c3nc(C)c(C(=O)/C=C/c4ccc(C)cc4)s3)nc2C)cc1", "CEM cells HIV-1 protection, formazan growth assay", "< 4.41"),
]
